Ref: paper PMC10397247

# Assayed System: T1, APC6108-AA
# T1 chain: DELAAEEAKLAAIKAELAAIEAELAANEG
# Test Summary: two-hybrid library CCmax;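 note: natural log of median RNA to DNA barcode read ratio; higher means stronger binding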
# Assay Setup: mean of both orientations
Could you label it MET if measured interaction score is -2 or higher, and NOT MET otherwise?

Examples from the recorded data:
>  <Binder>
DKLAAIKAENAALEAKAAALKAENAALEG [APC1434-AA]

>  <Discrete Label>
MET

$$$$
>  <Binder>
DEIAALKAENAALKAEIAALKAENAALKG [4H716-AA]

>  <Discrete Label>
MET

$$$$
>  <Binder>
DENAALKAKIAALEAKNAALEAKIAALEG [4H1845-AA]

>  <Discrete Label>
NOT MET

$$$$
>  <Binder>
DELAAIEAEAAALEAKAAALKAEAAALEG [APC232-AA]

>  <Discrete Label>
MET

$$$$

Alright, here's another binder for you.
Ask | Given the entry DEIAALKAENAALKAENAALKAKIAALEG [4H733-AA] , answer whether its interaction score meets or surpasses -2.
Reply | MET
